List of OD value at 450 nm (refer to 630 nm) values.
EXPERIMENTAL_TARGET: Pan-species-specific antigen Plasmodium Lactate DeHydrogenase (Pan-PLDH) protein
ASSAY_DETAILS: indirect ELISA, recombinant MA protein coated 1 ug/ml, antibody 1000 ng/ml
Express your answer in OD, writing the number without its unit.

Provide one value: measured OD value at 450 nm (refer to 630 nm) of Mutation 4 (antibody, mouse IgG2b, kappa, V domains shown) VH: QVQLQQPGAELVRPGASVKLSCKASGSSFTNYFMNWVKQRPGQGLEWIGMIHPSESETRINQKFKDKATLTVDKSSSTAYMQLSSLTAEDSAVYYCAKSGDFYTSYWDYWGQGTTLTVSS VL: DIQLTQSPASLSASVGETVTITCRGSGNLHNYIAWYQQKQGKSPQLLVYNARTIADGVPSRFSGSGSGTQYSLKINSLQPEDFGSYYCQSFWSTYTFGGGTKLEIKR
2.15

For the binder Mutation 2 (antibody, mouse IgG2b, kappa, V domains shown) VH: QVQLQQPGAELVRPGASVKLSCKASGSSFTNYFMNWVKQRPGQGLEWIGMIHPSESETRINQKFKDKATLTVDKSSSTAYMQLSSLTAEDSAVYYCAKSGDFYTSYFDYWGQGTTLTVSS VL: DIQLTQSPASLSASVGETVTITCRGSGNLHNYLAWYQQKQGKSPQLLVYNARTIADGVPSRFSGSGSGTQYSLKINSLQPEDFGSYYCQSFWSSYTFGGGTKLEIKR , report OD value at 450 nm (refer to 630 nm).
2.21

Please indicate OD value at 450 nm (refer to 630 nm) recorded for Mutation 3 (antibody, mouse IgG2b, kappa, V domains shown) VH: QVQLQQPGAELVRPGASVKLSCKASGSSFTNYWMNWVKQRPGQGLEWIGMINPSESETRINQKFKDKATLTVDKSSSTAYMQLSSLTAEDSAVYYCAKSGDFYTSYFDYWGQGTTLTVSS VL: DIQLTQSPASLSASVGETVTITCRGSGNLHNYIAWYQQKQGKSPQLLVYNARTIADGVPSRFSGSGSGTQYSLKINSLQPEDFGSYYCQSFWSTYTFGGGTKLEIKR
2.23

# return recorded OD value at 450 nm (refer to 630 nm) for input anti-Pan-PLDH 9G7 monoclonal antibody (antibody, mouse IgG2b, kappa, V domains shown) VH: QVQLQQPGAELVRPGASVKLSCKASGSSFTNYFMNWVKQRPGQGLEWIGMINPSESETRINQKFKDKATLTVDKSSSTAYMQLSSLTAEDSAVYYCAKSGDFYTSYWDYWGQGTTLTVSS VL: DIQLTQSPASLSASVGETVTITCRGSGNLHNYIAWYQQKQGKSPQLLVYNARTIADGVPSRFSGSGSGTQYSLKINSLQPEDFGSYYCQSFWSSYTFGGGTKLEIKR
1.94

Shifting focus to the binder that follows.
Read off the recorded OD value at 450 nm (refer to 630 nm) for Mutation 1 (antibody, mouse IgG2b, kappa, V domains shown) VH: QVQLQQPGAELVRPGASVKLSCKASGSSFTNYWMNWVKQRPGQGLEWIGMIHPSESETRINQKFKDKATLTVDKSSSTAYMQLSSLTAEDSAVYYCAKSGDFYTSYFDYWGQGTTLTVSS VL: DIQLTQSPASLSASVGETVTITCRGSGNLHNYLAWYQQKQGKSPQLLVYNARTIADGVPSRFSGSGSGTQYSLKINSLQPEDFGSYYCQSFWSTYTFGGGTKLEIKR
2.26
